Tested on: HT29 colon
Assay: NCI-60 one-dose screen, 48 h
Settings: 10 µM unless noted
Procedure: Growth inhibition of the HT29 human tumor cell line is measured as a screen for anti-cancer activity. Cells are grown in 96 well plates and exposed to the test compound for 48 hours. Compounds are tested at a single concentration, which is 10^-5 M for most compounds. The reported endpoint is percent growth (GI% or GIPRCNT), where numbers from 0 - 100% represent growth inhibition, and numbers from -100% - 0 represent cell death. For example, a value of 40 represents 60% growth inhibition. […]
Compounds without any hit were thinned out: in the full panel of roughly 83,000, 20% have a hit. Calls of active or inactive are those of the source. Rule for the calls: active = growth percent below 10; inactive = the rest.
Select the correct class. Options are active, inactive and nothing else.

Dear colleague, could you share the recorded outcome for CC[C@H](C)[C@H](NC(=O)[C@H]1CCCCN1C)C(=O)N(C)[C@H](CCc1nc(C(=O)N[C@@H](Cc2ccccc2)C[C@H](C)C(=O)O)cs1)C(C)C when you have a moment?
active

Dear colleague, could you share the recorded outcome for CN1C2CCC1[C@@H](COC(=O)c1ccccc1)[C@@H](O)C2 (some centres undefined) when you have a moment?
inactive

Dear colleague, could you share the recorded outcome for C[C@]12CCc3sc(Nc4ccc(F)cc4)nc3C1=CC[C@@H]1[C@@H]2CC[C@]2(C)C(=O)CC[C@@H]12 when you have a moment?
inactive

Dear colleague, could you share the recorded outcome for O=S(=O)(c1ccc(O)cc1)c1ccccc1O when you have a moment?
inactive
